Tested on: pigweed
Experiment: Test A pre-/postemergence herbicide test
Format: in vivo, Amaranthus retroflexus
Settings: 125 g ai/ha; visual rating, 0 to 100 scale, 0 no effect, 100 complete control; approximately 10 days; preemergence
MEASUREMENT NAME: Plant response rating, Pigweed
Reply with just the number.

Answered cases to consult:
{"COMPOUND": "O=C1NCC(c2cccc(C(F)F)c2)C1C(=O)Nc1ccccc1C(F)(F)F (racemic) [Compound 212]", "Plant response rating, Pigweed": 0}
{"COMPOUND": "O=C1NCC(c2cccc(OC(F)(F)C(F)F)c2)C1C(=O)Nc1cccc(F)c1F (racemic) [Compound 123]", "Plant response rating, Pigweed": 70}
{"COMPOUND": "Cc1cc(C2CNC(=O)C2C(=O)Nc2ccc(F)cc2F)ccc1F (racemic) [Compound 140]", "Plant response rating, Pigweed": 0}
{"COMPOUND": "O=C1NCC(c2ccc(C(F)(F)F)cc2)C1C(=O)Nc1cccc(F)c1F (racemic) [Compound 202]", "Plant response rating, Pigweed": 60}
{"COMPOUND": "Cc1ccc(NC(=O)C2C(=O)NCC2c2cccc(C(F)(F)F)c2)cc1C(F)(F)F (racemic) [Compound 186]", "Plant response rating, Pigweed": 0}

Let us examine a further case.
Inquiry: Give Plant response rating, Pigweed for O=C1NCC(c2ccc3c(c2)OC(F)(F)O3)C1C(=O)Nc1ccc(F)c(F)c1F (racemic) [Compound 162]
Reply text: 60

---

System: ryegrass, Italian
Test: Test A pre-/postemergence herbicide test
Format: in vivo, Lolium multiflorum
Conditions: Preemergence, 500 g ai/ha; visual rating on 0 to 100 scale (0 no effect, 100 complete control)
Readings of Ryegrass, Italian plant response rating for the listed compounds
Could you keep your reply to the number by itself?

{"COMPOUND": "CN1CC(c2ccc(F)c(F)c2)C(C(=O)Nc2cccc(F)c2F)C1=O (stereo not shown) [Compound 303]", "MEASUREMENT NAME": "Ryegrass, Italian plant response rating", "MEASURED": 40}
{"COMPOUND": "O=C1NCC(c2cccc(-n3cccn3)c2)C1C(=O)Nc1ccccc1C(F)(F)F (stereo not shown) [Compound 338]", "MEASUREMENT NAME": "Ryegrass, Italian plant response rating", "MEASURED": 0}
{"COMPOUND": "CN1CC(c2ccc(C(F)(F)F)cc2)C(C(=O)Nc2cccc(F)c2F)C1=O (stereo not shown) [Compound 306]", "MEASUREMENT NAME": "Ryegrass, Italian plant response rating", "MEASURED": 80}

We now examine a further compound.
Inquiry: Using the record for O=C1NCC(c2cccc(Oc3ccccc3)c2)C1C(=O)Nc1ccc(F)cc1F (stereo not shown) [Compound 331] , state its measured Ryegrass, Italian plant response rating.
Reply text: 20

---

# Plant response rating, Nutsedge, Yellow per entry
Tested on: nutsedge, yellow
Test: Test C pre-/postemergence herbicide test
Assay type: in vivo, Cyperus esculentus
Conditions: Postemergence; 125 g ai/ha; scale 0 to 100 (0 no effect, 100 complete control)
Form field (numeric): enter value without unit.

Worked cases, answers included:
{"COMPOUND": "Cc1c(F)cccc1NC(=O)C1C(=O)NCC1c1ccc(F)c(F)c1 (racemic) [Compound 106]", "MEASUREMENT TARGET": "nutsedge, yellow", "MEASUREMENT NAME": "Plant response rating, Nutsedge, Yellow", "MEASURED": 0}
{"COMPOUND": "O=C1NCC(c2ccc(C(F)(F)F)cc2)C1C(=O)Nc1cccc(F)c1F (racemic) [Compound 202]", "MEASUREMENT TARGET": "nutsedge, yellow", "MEASUREMENT NAME": "Plant response rating, Nutsedge, Yellow", "MEASURED": 0}

Inquiry: Specify Plant response rating, Nutsedge, Yellow for O=C1NC[C@H](c2cccc(C(F)(F)F)c2)[C@H]1C(=O)Nc1ccccc1F [Compound 204] , system nutsedge, yellow.
Reply text: 0

Inquiry: Return reported Plant response rating, Nutsedge, Yellow for target or system nutsedge, yellow, item O=C1NCC(c2ccc(C(F)(F)F)cc2)C1C(=O)Nc1ccccc1F (stereo not shown) [Compound 79] .
Reply text: 0
